Answer each item with its documented UV Absorption in %, 300 nm.
Assay: UV absorption in % at 300, 280 and 240 nm (Table 2)
Format: physicochemical
Settings: 300 nm
Give bare numbers, in %.

O=C(O)c1ccccc1O [Salicylic acid]    94
Nc1ccccc1C(=O)O [Anthranilic acid(o-Aminobenzoic acid), o-Aminobenzoic acid]    84

Items follow; give UV Absorption in %, 300 nm for each.
1. Nc1ncnc2c1ncn2[C@@H]1O[C@H](COP(=O)(O)O)[C@@H](O)[C@H]1O [Adenosine-5'-monophosphoric acid-Na2]
2. Nc1ccn([C@@H]2O[C@H](COP(=O)(O)O)[C@@H](O)[C@H]2O)c(=O)n1 [Cytidine-5'-monophosphoric acid-Na2]
3. Nc1cc[nH]c(=O)n1 [Cytosine]
4. O=c1cc[nH]c(=O)[nH]1 [Uracil]
5. Nc1ncnc2nc[nH]c12 [Adenine]
6. O=c1[nH]cnc2nc[nH]c12 [Hypoxanthine]

[6, 3, 95, 42, 14, 6]

Items follow; give UV Absorption in %, 300 nm for each.
1. Nc1nc2nc[nH]c2c(=O)[nH]1 [Guanine]
2. O=c1ccn([C@@H]2O[C@H](COP(=O)(O)O)[C@@H](O)[C@H]2O)c(=O)[nH]1 [Uridine-5'-monophosphoric acid-Na2]
3. Nc1ccc(C(=O)O)c(O)c1 [4-Aminosalicylic acid]
4. Nc1ccc(C(=O)O)cc1 [p-Aminobenzoic acid]
5. Nc1cc(C(=O)O)c(O)c(S(=O)(=O)O)c1 [5-Amino-3-sulfosalicylic acid-Na2]

1: 11; 2: 0; 3: 99; 4: 100; 5: 26
